- system name: Dihydroorotate dehydrogenase (quinone), mitochondrial (Homo sapiens, UniProt Q02127)
- Sequence (Q02127 whole entry): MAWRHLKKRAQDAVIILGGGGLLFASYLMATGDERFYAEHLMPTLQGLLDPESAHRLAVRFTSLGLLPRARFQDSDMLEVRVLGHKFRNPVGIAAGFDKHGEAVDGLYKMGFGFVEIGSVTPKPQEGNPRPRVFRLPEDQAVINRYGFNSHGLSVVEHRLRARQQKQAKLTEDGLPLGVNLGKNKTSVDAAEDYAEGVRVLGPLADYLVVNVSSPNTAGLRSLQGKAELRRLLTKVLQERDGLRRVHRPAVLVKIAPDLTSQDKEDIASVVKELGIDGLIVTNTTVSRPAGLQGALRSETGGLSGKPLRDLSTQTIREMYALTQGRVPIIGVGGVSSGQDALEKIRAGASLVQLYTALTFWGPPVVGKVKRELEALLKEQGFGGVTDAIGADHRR
assay metric: Ki (nM)

Some molecules with recorded Ki:
smiles record | readout units | Ki
Cc1ccc(-c2ccc(-c3nc4ccc(F)cc4c(C(=O)O)c3C)cc2)cc1 | nM | 24
O=C(O)c1c2c(nc3ccc(F)cc13)-c1ccc(-c3ccccc3)cc1CC2 | nM | 17

[P] Cc1c(-c2ccc(-c3ccccc3)cc2)nc2ccc(Cl)cc2c1C(=O)O
[Q] Cc1ccc2nc(-c3ccc(-c4ccccc4)cc3)c(C)c(C(=O)O)c2c1
(Q) Which shows the larger Ki value: P or Q ? Lab log: write the label of the selected item as the result.
(A) P
(P: 20 nM, Q: 10 nM)

Every entry's value here was drawn from ChEMBL document CHEMBL1128771.
